Value source: patent US7326732B2

molecular target: human EP2 prostanoid receptors (Homo sapiens); construct: expressed in transfected cells; host or cells: HEK-293; assay: Agonist activity at recombinant human EP2 prostanoid receptors (cAMP in HEK-293 clones); type: cell-based; details: functional classification at EP2
Sequence (P43116 whole entry): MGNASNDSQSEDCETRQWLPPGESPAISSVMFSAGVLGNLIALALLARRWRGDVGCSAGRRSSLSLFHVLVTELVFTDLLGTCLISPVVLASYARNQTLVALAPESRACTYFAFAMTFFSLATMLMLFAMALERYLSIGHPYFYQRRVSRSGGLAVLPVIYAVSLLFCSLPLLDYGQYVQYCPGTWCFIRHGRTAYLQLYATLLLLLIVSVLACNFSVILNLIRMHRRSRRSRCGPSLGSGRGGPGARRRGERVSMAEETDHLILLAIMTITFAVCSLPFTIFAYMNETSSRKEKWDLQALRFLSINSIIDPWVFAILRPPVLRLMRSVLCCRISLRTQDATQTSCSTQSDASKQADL

Line Notation: O=C(O)CCc1cccc(NC(=O)c2ccc(-c3ccccc3)o2)c1
activity (EP2 part): EP2 agonist
--
Line Notation: O=C(Nc1ccc2[nH]c(C(=O)O)cc2c1)c1cccc(-c2cc(Cl)cc(Cl)c2)n1
activity (EP2 part): EP2 Agonist
--
Line Notation: O=C(O)Cc1cccc(NC(=O)c2ccc(-c3ccc(F)cc3)o2)c1
activity (EP2 part): EP2 agonist
--
Line Notation: O=C(Nc1cccc(/C=C/c2nnn[nH]2)c1)c1ccc(-c2cccc(Cl)c2)o1
activity (EP2 part): EP2 Agonist
--
Line Notation: O=C(O)/C=C/c1cccc(NC(=O)c2cccc(-c3cc(Cl)cc(Cl)c3)n2)c1
activity (EP2 part): EP2 Agonist
--
Line Notation: O=C(O)c1cccc(CNC(=O)c2ccc(-c3ccccc3)o2)c1
activity (EP2 part): EP2 Agonist
--
Line Notation: COc1ccccc1-c1ccc(C(=O)Nc2cccc(CC(=O)O)c2)o1
activity (EP2 part): EP2 agonist
--
Line Notation: O=C(O)Cc1cccc(NC(=O)c2ccc(-c3cccc4ccccc34)o2)c1
activity (EP2 part): EP2 agonist
--
Line Notation: O=C(O)/C=C/c1cccc(CC(=O)c2ccc(-c3ccccc3)o2)c1
activity (EP2 part): EP2 Agonist
